Assay: qHTS assay to identify small molecule antagonists of the thyroid receptor (TR) signaling pathway (AID 743065); also: nearly all actives have a fitted effect of over 55% in size
Settings: GH3.TRE-Luc, T3-stimulated luciferase inhibition, 23.5 h; series mostly up to 70.3 µM
Inconclusive results are not listed. The source made the active and inactive calls. Calls follow the shape of the dose curve; as a rule, active = well fitted inhibition curve with a large enough effect in the repeat runs; inconclusive = weak or mixed curves; inactive = no such curve, though single readings can be large or run the other way.

# molecule, outcome
rows = [
    ("CCSC(=O)N(CC(C)C)CC(C)C", "inactive"),
    ("CCc1nccnc1CC", "inactive"),
    ("Cc1ccc(C#N)cc1", "inactive"),
    ("NCCCNCCSP(=O)(O)O", "inactive"),
    ("CC(C)(O)C#CC(C)(C)O", "inactive"),
    ("FC(F)OC(Cl)C(F)(F)F (stereo not given)", "inactive"),
    ("CC(C(=O)O)c1ccc(CC2CCCC2=O)cc1 (stereo not given)", "inactive"),
    ("O=C1CCCN1C1CCCCC1", "inactive"),
    ("NC(=O)c1cn(Cc2c(F)cccc2F)nn1", "inactive"),
    ("c1ccc(CC2=NCCN2)cc1", "inactive"),
    ("O=C(CCCN1CCN(c2ccccn2)CC1)c1ccc(F)cc1", "inactive"),
    ("O=C(O)CCCc1ccccc1", "inactive"),
    ("O=C(O)COc1nn(Cc2ccccc2)c2ccccc12", "inactive"),
    ("C=C[Si](OC(=C)C)(OC(=C)C)OC(=C)C", "inactive"),
    ("CCN1CCC[C@H]1CNC(=O)c1cc(S(N)(=O)=O)ccc1OC", "inactive"),
]

* * *

Experiment: qHTS assay to test for compound auto fluorescence at 590 nm (red) in HEK293 cell free culture (AID 720683)
Settings: cell-free medium autofluorescence, Ex540/Em590 red; series mostly up to 46 µM
Active and inactive are the calls of the source. Calls follow the shape of the dose curve; as a rule, active = well fitted curve in the direction sought with a large enough effect in the repeat runs; inconclusive = weak or mixed curves; inactive = flat fitted curve, though single readings scatter.

# compound, fluorescence, % of fluorescent control
records = [
    ("CCCCCSCCCCC", "inactive"),
    ("C[C@@H]1CCN(C(=O)[C@H](CCCN=C(N)N)NS(=O)(=O)c2cccc3c2NC[C@H](C)C3)[C@@H](C(=O)O)C1", "inactive"),
    ("NC(=O)COCCN1CCN(C(c2ccccc2)c2ccc(Cl)cc2)CC1 (stereo unspecified)", "inactive"),
    ("CCC(C)C1CCCCC1=O (stereo unspecified)", "inactive"),
    ("O=c1cc(CO)occ1O", "inactive"),
    ("O=C(O)CCCl", "inactive"),
    ("Cc1cccc(C)c1NC(=O)C(C)N (stereo unspecified)", "inactive"),
    ("Cc1cccn2c(=O)c(-c3nnn[nH]3)cnc12", "inactive"),
    ("C[C@H](NC(CCc1ccccc1)C(=O)O)C(=O)N1CCC[C@H]1C(=O)O (stereo partly specified)", "inactive"),
    ("CCn1nc(C(=O)O)c(=O)c2cc3c(cc21)OCO3", "inactive"),
    ("CC(=O)CC(C)(C)C1CCCCC1", "inactive"),
    ("NCCCNCCSP(=O)(O)O", "inactive"),
    ("Nc1cc(=O)[nH]c(N)n1", "inactive"),
    ("CCC(=O)OC(C)c1ccccc1 (stereo unspecified)", "inactive"),
    ("O=C(O)CCCc1ccccc1", "inactive"),
    ("CC(C)(C)c1nnc(NS(=O)(=O)c2ccccc2)s1", "inactive"),
    ("CCCCCCCCCCCCCCCCC", "inactive"),
    ("CO[Si](CCCOCC1CO1)(OC)OC (stereo unspecified)", "inactive"),
    ("CN(C(=O)c1c(O)c2ccccc2n(C)c1=O)c1ccccc1", "inactive"),
    ("NC(=O)c1ccc([N+](=O)[O-])cc1", "inactive"),
    ("CCCCC/C=C\\CCC=O", "inactive"),
    ("O=c1cc(-c2ccccc2)oc2ccccc12", "inactive"),
    ("OCCCC1CCCCC1", "inactive"),
    ("COc1c(N2C[C@@H]3CCCN[C@@H]3C2)c(F)cc2c(=O)c(C(=O)O)cn(C3CC3)c12", "inactive"),
    ("CC1(C)C(O)C(C)(C)C1O (stereo unspecified)", "inactive"),
    ("CCCCC(CC)COC(=O)c1ccccc1O (stereo unspecified)", "inactive"),
    ("CCC=O", "inactive"),
    ("ClC(Cl)(Br)Br", "inactive"),
    ("C[C@H]1C[C@@H](O)CC(C)(C)C1", "inactive"),
    ("CCN1CCC[C@H]1CNC(=O)c1c(O)c(Cl)cc(Cl)c1OC", "inactive"),
    ("CCN(CC)CCOCCOC(=O)C1(c2ccccc2)CCCC1", "inactive"),
    ("C=C(C)C(=O)OCCCCCCCC(C)C", "inactive"),
    ("COc1ccc(CCN(C)CCCC(C#N)(c2cc(OC)c(OC)c(OC)c2)C(C)C)cc1OC (stereo unspecified)", "inactive"),
    ("CS(=O)(=O)O", "inactive"),
    ("CO[C@]12C[C@@H](COC(=O)c3cncc(Br)c3)CN(C)[C@@H]1Cc1cn(C)c3cccc2c13", "inactive"),
    ("CC(C(=O)O)c1ccc(CC2CCCC2=O)cc1 (stereo unspecified)", "inactive"),
    ("CC(C)c1cc2c(cc1S(=O)(=O)O)[C@@]1(C)CCC[C@@](C)(C(=O)O)[C@@H]1CC2", "inactive"),
    ("CCn1ccnc1CC1COc2ccccc2O1 (stereo unspecified)", "inactive"),
    ("NS(=O)(=O)c1ccc(C(=O)O)cc1", "inactive"),
    ("CN1CC(=O)NC1=N", "inactive"),
    ("O=C(O)Cc1ccc(CCNS(=O)(=O)c2ccc(Cl)cc2)cc1", "inactive"),
    ("COC(=O)[C@@H](N)Cc1ccc(O)c(O)c1", "inactive"),
    ("Cc1nc2c([nH]1)c(=O)n(C)c(=O)n2Cc1ccco1", "inactive"),
    ("O=[N+]([O-])c1ccc(F)cc1F", "inactive"),
    ("N[C@@H](C(=O)N[C@@H]1C(=O)N2C(C(=O)O)=C(Cl)CS[C@H]12)c1ccccc1", "inactive"),
    ("CCCCCCCCCCCC", "inactive"),
    ("CCOC(=O)c1cccc(N)c1", "inactive"),
    ("CCOC(=O)c1c(C)n(C)c2ccc(O)cc12", "inactive"),
    ("N=C(N)c1ccc(OCCCOc2ccc(C(=N)N)cc2)cc1", "inactive"),
    ("CC[N+](C)(C)c1cccc(O)c1", "inactive"),
    ("COC(=O)c1c(Cl)c(Cl)c(C(=O)OC)c(Cl)c1Cl", "inactive"),
    ("CCCCOCCOCCOCc1cc2c(cc1CCC)OCO2", "inactive"),
    ("c1cnc(N2CCN(Cc3ccc4c(c3)OCO4)CC2)nc1", "inactive"),
    ("CN1CCN(c2cc3c(cc2F)c(=O)c(C(=O)O)cn3-c2ccc(F)cc2)CC1", "inactive"),
    ("CC/C=C\\CCOC(C)=O", "inactive"),
    ("COc1cc(C(=O)N2CCCCCCC2)cc(OC)c1OC", "inactive"),
]

* * *

Biological target: Nuclear receptor subfamily 1 group I member 2 (Homo sapiens) (UniProt O75469)
Assay: Human pregnane X receptor (PXR) activation by small molecules, qHTS assay (AID 1346985); also: nearly all actives have a fitted effect of over 40% in size
Details: DPX-2 HepG2 CYP3A4-luciferase, 24 h; series mostly up to 38.3 µM
Results filed as inconclusive are left out. The source made the active and inactive calls. The call rests on the fitted dose curve; in most records, active means well fitted activation curve with a large enough effect in the repeat runs; inconclusive means weak or mixed curves; inactive means flat fitted curve, though single readings scatter.
Labels: active, inactive

# molecule, group_label
data = [
    ("c1ccc(CC2=NCCN2)cc1", "inactive"),
    ("FC1(F)C(F)(F)C(F)(F)C2(F)C(F)(F)C(F)(F)C(F)(F)C(F)(F)C2(F)C1(F)F (configuration not stated)", "inactive"),
    ("CCCc1cc(C(N)=S)ccn1", "inactive"),
    ("Cc1[nH]c(=O)c(C#N)cc1-c1ccc2nccn2c1", "inactive"),
    ("CN1CCN(c2cc3c(cc2F)c(=O)c(C(=O)O)cn3-c2ccc(F)cc2)CC1", "inactive"),
    ("CC(C)CCCC(C)N (configuration not stated)", "inactive"),
    ("CCO/C([O-])=N/c1c[n+](N2CCOCC2)no1", "inactive"),
    ("O=C(O)COc1nn(Cc2ccccc2)c2ccccc12", "inactive"),
    ("O=C(CCCN1CCN(c2ccccn2)CC1)c1ccc(F)cc1", "active"),
    ("CCN(CC)CCNC(=O)c1cc(S(C)(=O)=O)ccc1OC", "inactive"),
    ("NS(=O)(=O)c1cc(C(=O)O)cc(N2CCCC2)c1Oc1ccccc1", "inactive"),
    ("COC(=O)[C@@H](N)Cc1ccc(O)c(O)c1", "inactive"),
    ("CC(C)c1cc2c(cc1S(=O)(=O)O)[C@@]1(C)CCC[C@@](C)(C(=O)O)[C@@H]1CC2", "inactive"),
    ("CN1CC(=O)NC1=N", "inactive"),
    ("CC(=O)OCC(CCn1cnc2cnc(N)nc21)COC(C)=O", "inactive"),
    ("CCCC(=O)O[C@]1(C(=O)CO)CC[C@H]2[C@@H]3CCC4=CC(=O)CC[C@]4(C)[C@H]3[C@@H](O)C[C@@]21C", "inactive"),
    ("c1ccc([C@H]2CN3CCSC3=N2)cc1", "inactive"),
    ("CCOc1ccc(C(=O)OCCN(CC)CC)cc1", "inactive"),
    ("C[C@](N)(Cc1ccc(O)cc1)C(=O)O", "inactive"),
    ("CCCCC(CC)COC(=O)c1ccccc1O (configuration not stated)", "inactive"),
    ("CCOC(=O)c1c(C)n(C)c2ccc(O)cc12", "inactive"),
    ("CC(C[N+](C)(C)C)OC(N)=O (configuration not stated)", "inactive"),
    ("COc1c(N2C[C@@H]3CCCN[C@@H]3C2)c(F)cc2c(=O)c(C(=O)O)cn(C3CC3)c12", "inactive"),
    ("CC(C)NCC(O)c1ccc(NS(C)(=O)=O)cc1 (configuration not stated)", "inactive"),
    ("Nc1nc2c(ncn2COC(CO)CO)c(=O)[nH]1", "inactive"),
    ("N[C@H](C(=O)O)c1ccc(O)cc1", "inactive"),
    ("CC1(C)CO[C@@H](CC(=O)O)CN1", "inactive"),
    ("O=C(O)Cc1ccc(CCNS(=O)(=O)c2ccc(Cl)cc2)cc1", "inactive"),
    ("C[C@@H]1CCN(C(=O)[C@H](CCCN=C(N)N)NS(=O)(=O)c2cccc3c2NC[C@H](C)C3)[C@@H](C(=O)O)C1", "inactive"),
    ("Cc1cc2c(cc1S(N)(=O)=O)S(=O)(=O)CCC2", "inactive"),
    ("COc1cc(C(=O)N2CCCCCCC2)cc(OC)c1OC", "active"),
    ("CCOC(=O)[C@H](CCc1ccccc1)N[C@@H](C)C(=O)N1[C@H](C(=O)O)C[C@@H]2CCC[C@@H]21", "inactive"),
]
